Where do the numbers come from? From patent US20230357447A1.

# targetOfAssay: T1, Anti-CD28 scFv (VH-linker 1-VL) (biotinylated (site not stated))
# T1 construct: biotinylated and captured on neutravidin coated plates in the phage ELISA
# T1 sequence (scFv, as listed by the source): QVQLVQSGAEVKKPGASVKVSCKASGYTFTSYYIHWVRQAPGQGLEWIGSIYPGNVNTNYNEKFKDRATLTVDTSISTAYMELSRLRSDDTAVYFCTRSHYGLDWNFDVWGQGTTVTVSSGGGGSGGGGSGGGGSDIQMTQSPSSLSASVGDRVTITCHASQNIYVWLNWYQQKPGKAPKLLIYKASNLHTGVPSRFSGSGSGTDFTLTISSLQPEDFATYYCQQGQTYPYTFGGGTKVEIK
# assaySummary: phage binding ELISA on captured anti-CD28 scFv, wells pre-incubated with soluble CD28 (competitor);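 also: crude clonal phage supernatants added without washing, bound phage detected by HRP-conjugated anti-M13 antibody, control wells held blocking buffer alone instead of CD28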
attributeMeasured: CD28 scFv signal in presence of CD28
Numbers only.

Look over these answered cases.
1. MDWCPMSMWAFCFD [Phage-405]; 0.16
2. MDWCPTYLWNVCFA [Phage-323]; 0.132

Could you now consider this next binder?
Ask | I am curious: what CD28 scFv signal in presence of CD28 value has been reported for MDWCPRSMWDSCFN [Phage-399] ?
Reply | 0.142
